Origin of the recorded values: ChEMBL document CHEMBL1123336

Catalogue of log10 IC50 readings, one per entry.
- SYSTEM_TESTED: Monoamine oxidase (Rattus norvegicus, UniProt P19643+P21396)
- ASSAY_DETAILS: Compound was tested in vitro for inhibition of MAO by using [14C]5-HT as substrate in rat brain mitochondrial preparation
- Format: tissue-based
// do not treat as linear: log10 of IC50, unit nM

Solved cases (3 shown):
1) Cc1c(CC(C)N)ccc2c1CCN2 (stereo not drawn) = 2.90
2) CC(C)(N)Cc1ccc2c(c1)CCN2 = 3.45
3) CC(N)Cc1ccc2c(c1Cl)CCN2 (stereo not drawn) = 2.30

Supply measured log10 IC50 of CC(N)Cc1ccc2c(c1)CCN2 (stereo not drawn) in your reply. 3.70

Supply measured log10 IC50 of CCN1CCc2c1ccc(CC(C)N)c2C (stereo not drawn) in your reply. 3.04

Supply measured log10 IC50 of CCN1CCc2cc(CC(C)N)c(C)cc21 (stereo not drawn) in your reply. 2.52

Supply measured log10 IC50 of Cc1cc2c(cc1CC(C)N)CCN2 (stereo not drawn) in your reply. 4.11

Supply measured log10 IC50 of Cc1cc(N(C)C)ccc1CC(C)N (stereo not drawn) in your reply. 2.90
